# System: NCI-H522 lung
# Protocol Notes: NCI tumour cell line growth inhibition, 48 h; in the data active = GI50 below about 0.43 µM; inactive = the rest
Your answer must be one of the following: y = active, n = inactive

Example results:
| Compound | Discrete Label |
| --- | --- |
| C=C1C(=O)O[C@@H]2C[C@@H]1CC[C@]1(C)O[C@H]1CC[C@@]1(C)O[C@@H]1CC[C@@]2(C)O | n |
| COc1cccc(-c2nn(-c3ccccc3)cc2-c2ccnc(NCCNS(=O)(=O)c3ccc(Cl)cc3)c2)c1 | n |
| CNc1ccccc1C(=O)N/N=C/C=C/c1ccccc1 | n |
| COc1ccc(CN2C(=O)/C(=C\c3cc(OC)c(OC)c(OC)c3)c3cc(OC)ccc32)cc1 | n |
| COC(=O)/C=C/c1cc(O)c2c(c1)C(C(=O)OC)C(c1ccc(O)c(O)c1)O2 (centres undefined) | y |
| O=C(Nc1ccc(-c2nc3cc4ccccc4cc3[nH]2)cc1)c1cccc(Br)c1 | n |

Query block: Recorded test outcome, item CCn1c(=O)c(-c2ccn[nH]2)cc2c(C)nc(N)nc21
Result block: n

Query block: CC(C)C[C@H](NC(=O)[C@H](Cc1ccccc1)n1ccc(N2CCCCC2)cc1=O)B(O)O , same question.
Result block: y

Query block: COc1ccc(-c2ccc(C3CC(c4ccc(O)cc4)=NN3)o2)c([N+](=O)[O-])c1 (centres undefined) , same question.
Result block: n
